tested.system: Proteasome Macropain subunit MB1 (Homo sapiens)
Sequence (P28074 whole entry): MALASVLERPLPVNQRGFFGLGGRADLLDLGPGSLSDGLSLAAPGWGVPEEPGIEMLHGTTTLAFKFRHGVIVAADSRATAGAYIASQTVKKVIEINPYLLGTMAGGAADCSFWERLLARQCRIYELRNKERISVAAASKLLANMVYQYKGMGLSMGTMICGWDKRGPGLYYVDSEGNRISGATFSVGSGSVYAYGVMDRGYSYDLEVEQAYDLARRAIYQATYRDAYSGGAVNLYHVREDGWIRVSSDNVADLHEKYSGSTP
assay.protocol: Inhibition of 20S proteosome beta 5 purified from human HCT116 cells using Suc-LLVY-AMC as substrate incubated for 30 to 120 mins by fluorimetry
recorded.metric: IC50

Looking for the measured IC50 of CC(C)C[C@H](NC(=O)OCc1ccccc1)C(=O)N[C@@H](Cc1ccccc1)C(O)C(=O)NCc1ccccc1 (stereo partly drawn) , can you help?
> 100 µM

Looking for the measured IC50 of CC(C)C[C@H](NC(=O)OCc1ccccc1)C(=O)N[C@@H](CC(C)C)C(=O)N[C@@H](CC(C)C)C(O)C(=O)N1CCOCC1 (stereo partly drawn) , can you help?
> 100 µM

Further cases:
Looking for the measured IC50 of CC(C)C[C@H](NC(=O)OCc1ccccc1)C(=O)N[C@@H](CC(C)C)C(=O)N[C@@H](CC(C)C)C(O)C(=O)NCc1ccc(F)cc1 (stereo partly drawn) , can you help?
> 100 µM
